Data provenance is PubChem BioAssay (NCI).

- Tested on: HCT-116 colon
- experiment.notes: NCI-60 one-dose screen, 48 h
- condition.description: 10 µM unless noted
About 83,000 compounds went through this panel and 20% of them were active in at least one assay; those are over-represented in the sample as a whole. Calls of active or inactive are those of the source. Rule for the calls: active = growth percent below 10; inactive = the rest.
Would you mind answering with one of these outcomes? active, inactive

{"compound": "COc1ccc(/C=N/NC(=O)c2cnn(CC(O)Cc3ccccc3)c2N)cc1OC1CCCC1 (stereo not given)", "assigned.label": "inactive"}
{"compound": "Clc1ccc(C2=NN(c3ccccc3)[C@H](c3cn(-c4ccccc4)nc3-c3ccccc3)C2)cc1", "assigned.label": "inactive"}

QUERY: Lab log entry: CC1(C)N=C(N)N=C(N)N1c1cccc(/C=C/C=C/c2cccc([N+](=O)[O-])c2)c1 — outcome as called in the assay?
RESULT: inactive

QUERY: Which result was noted for this compound in the test: Cc1cc(Cl)c2c(Cl)ccc(Cl)c2n1
RESULT: inactive

QUERY: Recorded test outcome, item COc1ccccc1CNCCCCCCCCCCCCN1C(=O)c2ccc3c4c(ccc(c24)C1=O)C(=O)N(CCCCCCCCCCCCNCc1ccccc1OC)C3=O
RESULT: active
